Test system: Bel-7402
assayDetails: Cytotoxicity against human Bel7402 cells after 3 days by MTT assay
Assay type: functional, cell-based
conditionDescription: Bel-7402, 72 h
attributeMeasured: pIC50
// returns pIC50 (minus log10 of molar concentration), number only

**Q:** I am curious: what pIC50 value has been reported for C/C=C(/C)C(=O)OC[C@H]1C2=C(C[C@H]3[C@H]4C5=C(C[C@@H](C(=O)N13)N4C)C(=O)C(C)=C(OC)C5=O)C(=O)C(C)=C(OC)C2=O [(-)-RENIERAMYCIN G] ?
**A:** 5.04

**Q:** Using the record for `COC1=C(C)C(=O)C2=C(C1=O)[C@@H]1[C@@H]3CC4=C(C(=O)C(OC)=C(C)C4=O)[C@H](COC(=O)/C=C/c4cccc5ccccc45)N3C(=O)[C@H](C2)N1C` , report its pIC50.
**A:** 5.01

**Q:** Requested read-out: pIC50. Entry: `COC1=C(C)C(=O)C2=C(C1=O)[C@@H]1[C@@H]3CC4=C(C(=O)C(OC)=C(C)C4=O)[C@H](COC(=O)/C=C/c4ccc(OC)c(OC)c4OC)N3C(=O)[C@H](C2)N1C`
**A:** 4.85

**Q:** Please report the recorded pIC50 for `C/C=C/C=C/C(=O)OC[C@H]1C2=C(C[C@H]3[C@H]4C5=C(C[C@@H](C(=O)N13)N4C)C(=O)C(C)=C(OC)C5=O)C(=O)C(C)=C(OC)C2=O` .
**A:** 5.67

**Q:** Returns the measured pIC50 for the input compound. Input: `COC1=C(C)C(=O)C2=C(C1=O)[C@@H]1[C@@H]3CC4=C(C(=O)C(OC)=C(C)C4=O)[C@H](COC(=O)/C=C/c4ccc(OC)cc4)N3C(=O)[C@H](C2)N1C`
**A:** 5.14
